Listed here are compounds together with their documented growth.
system: UO-31 renal; assay: NCI-60 one-dose screen, 48 h (100 = growth as untreated, 0 = no growth, -100 = all killed); conditions: 10 µM unless noted
The panel holds about 83,000 compounds, 20% with a hit somewhere; the sample as a whole holds those more often.
Kindly provide the numeric value in % only, without the unit symbol.

Use these answered entries as a reference point.
compound-string: CC/C(=C(/c1ccc(Cl)cc1)c1ccc(OCCN2CCCCC2)cc1)c1ccc(OC)cc1
measured: 66.2

compound-string: Cc1[nH]c(=O)[nH]c(=O)c1Br
measured: 105

compound-string: CC(C)c1ccc(Cc2cnc(NC(=O)c3cc(Br)cs3)s2)cc1
measured: 55

compound-string: CCOC(=O)C/C(=N\Nc1cc(=O)[nH]c2ccc(Br)cc12)C(=O)OCC
measured: 71.4

compound-string: CCCCCCCCCc1ccc(OCCOCCOCCOCCOCCOCCOCCOCCOCCO)cc1
measured: 12.8

compound-string: CCOC(=O)C#Cc1c(C(=O)OCC)nnn1Cc1ccc([N+](=O)[O-])cc1
measured: 4.18

compound-string: CCCC/C=C/[C@@H]1C[C@H]1CCO
measured: 87

compound-string: Cn1cc(-c2nonc2-c2cn(C)c3ccccc23)c2ccccc21
measured: 40.5

Look up and report measured growth for this entry: `Cn1c(=O)cc2c3c(c(NCCCO)ccc31)C(=O)c1ccccc1-2` 13.1

Look up and report measured growth for this entry: `COc1ccc(-c2nn(-c3cccc(Cl)c3)cc2-c2cc(-c3ccc(Br)cc3)nc(N)n2)cc1` 76

Look up and report measured growth for this entry: `CCOC(=O)Cc1cnc(N/N=C(\C)c2cc3ccccc3o2)s1` 64.7

* * *

system: TK-10 renal; test: NCI-60 one-dose screen, 48 h (100 = growth as untreated, 0 = no growth, -100 = all killed); conditions: 10 µM unless noted
This is part of a sample that, as a whole, favours compounds with a hit. Of some 83,000 tested, about 20% had one in any assay. Calls of active or inactive are those of the source. How the source made its calls: active means growth percent below 10; inactive means the rest.
result-type: growth

molecule: COc1cc2nc3cc([N+](=O)[O-])ccc3c(NCCNCC(C)O)c2cc1OC (stereo not given)
assay-system: TK-10 renal
growth: 14.3% (inactive)
--
molecule: O=C(Cn1cc(CSc2nc3ccccc3o2)nn1)Nc1ccc(F)cc1F
assay-system: TK-10 renal
growth: 117% (inactive)
--
molecule: N#Cc1ccc(O)c(C2=NCC(c3cccc(Oc4ccccc4)c3)O2)c1 (stereo not given)
assay-system: TK-10 renal
growth: 3.38% (active)
--
molecule: COc1c(C(=O)Nc2ccc(C)c(Br)c2)ccc2ccccc12
assay-system: TK-10 renal
growth: 103% (inactive)
--
molecule: CCN(CC)Cc1cc(C=C2C(=O)NC(=S)NC2=O)cc(OC)c1O
assay-system: TK-10 renal
growth: 110% (inactive)

Provide the reported growth (system: TK-10 renal) for `NC(=O)c1cccc(-n2ccc3cc(NC(=O)c4ccc(N5CCOCC5)c(C(F)(F)F)c4)ccc32)n1` 86.9% (inactive)

Provide the reported growth (system: TK-10 renal) for `O=S(=O)(Nc1ccc(F)cc1F)c1ccc(-c2cnc(C3CC3)o2)cc1` 67.2% (inactive)

Provide the reported growth (system: TK-10 renal) for `COc1ccc(-c2cc(-c3cccnc3)nc3sc4c(=O)[nH]c(-c5ccc(Cl)cc5)nc4c23)cc1OC` 104% (inactive)

Provide the reported growth (system: TK-10 renal) for `COc1ccc(-c2nc3cc(C(=O)NCc4ccccc4)ccc3n2C2CCCCC2)cc1` 90.9% (inactive)

Provide the reported growth (system: TK-10 renal) for `Cc1ccc2c(Cn3cc(CSc4nc5ccccc5o4)nn3)cc(=O)oc2c1` 122% (inactive)
